experiment: chemical genetic growth profiling, strain panel (AID 1159580);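 further: tested at 20 µM; growth read once vehicle control cultures reached saturation at 30 °C; 1 = growth at the plate median or of vehicle wells; lower values mean less growth of the strain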; settings: S. cerevisiae deletion strains, growth OD, locus YER155C, strain BEM2
Among all 5,500 compounds or so, about 2,000 (36%) were called active. Another 18% or so got no clear call; they are omitted. No stated cut-off is given here; in the data, active means normalized growth mostly below about 0.91 (no sharp cut-off); inconclusive means no clear call, values can overlap the other calls; inactive means mostly above about 0.92. This is one part of the list.
Possible outcomes: 1.0 for active, 0.0 for inactive

Compound: CC(=O)C1CC[C@H]2C3CC[C@H]4C[C@H](O)CC[C@]4(C)C3CC[C@]12C (stereo partly specified)
Answer label: 0.0
--
Compound: CCC(=O)OC1[C@@H]2CC3=C4CC(=O)O[C@@H](c5ccoc5)[C@]4(C)CCC3[C@@](C)(C2=O)[C@@H](CC(=O)OC)C1(C)C (stereo partly specified)
Answer label: 0.0
--
Compound: CNc1ccc(C(=O)CC(O)CCC(C)C2OC(=O)CC(O)CC(=O)CC(O)CC(O)CC(O)CC(O)CC3(O)CC(O)C(C(=O)OC)C(CC(OC4OC(C)C(O)C(N)C4O)/C=C/C=C/C=C/C=C/C=C/C=C/C=C/C2C)O3)cc1 (stereo unspecified)
Answer label: 1.0
--
Compound: COc1ccc2oc3ccccc3c(=O)c2c1
Answer label: 0.0
--
Compound: C[C@]12CCC3C(CC[C@H]4C[C@H](O)CC[C@]34C)C1CC[C@@H]2O (stereo partly specified)
Answer label: 0.0
--
Compound: C[C@]12CCC3c4ccc(O)cc4CCC3C1CCC2=O (stereo partly specified)
Answer label: 0.0
--
Compound: O=C(O)C(O)C(O)C(=O)O (stereo unspecified)
Answer label: 0.0
--
Compound: COP(=S)(OC)Oc1ccc([N+](=O)[O-])cc1
Answer label: 0.0
--
Compound: CC(=O)C1CCC2C3CCC4C[C@H](O)CCC4(C)C3C[C@H](O)C12C (stereo partly specified)
Answer label: 0.0
--
Compound: C[C@@H]1CC[C@H]2C(C)(C)C3CC12CC[C@@]3(C)O (stereo partly specified)
Answer label: 1.0
--
Compound: N[C@@H](C(=O)O)[C@@H](O)[C@H](O)[C@H](O)CO
Answer label: 0.0
--
Compound: Cc1onc(-c2ccccc2)c1-c1ccc(S(N)(=O)=O)cc1
Answer label: 0.0
--
Compound: CCCCCCCCCCCC(=O)OCC(COP(=O)(O)OCC(O)COP(=O)(O)OCC(COC(=O)CCCCCCCCCCC)OC(=O)CCCCCCCCCCC)OC(=O)CCCCCCCCCCC (stereo unspecified)
Answer label: 0.0
--
Compound: COc1ccc2c(=O)c(OC)c(-c3ccccc3)oc2c1
Answer label: 1.0
--
Compound: C[C@]12CCC3C(CC[C@H]4C[C@@H](O)CC[C@]34C)C1CC[C@@H]2O (stereo partly specified)
Answer label: 0.0
--
Compound: O=C(O)C(O)C(O)C(O)C(O)C(=O)O (stereo unspecified)
Answer label: 0.0
--
Compound: COc1ccc2oc(-c3ccccc3)c(OC)c(=O)c2c1
Answer label: 0.0
--
Compound: C1N2CN3CN1CN(C2)C3
Answer label: 0.0
--
Compound: COC1C=CC23c4cc5c(cc4CN(CC2O)[C@@H]3C1)OCO5 (stereo partly specified)
Answer label: 0.0
--
Compound: CN=C(N)NCCCC(N)C(=O)O (stereo unspecified)
Answer label: 0.0
--
Compound: CC(C)(S)[C@@H](N)C(=O)O
Answer label: 0.0
